assay: Simulated intestinal fluid (SIF) stability in the presence of various enzymes; format: in vitro ADME; settings: SIF + Trypsin, 30 min, 1 μM
Reported % Remaining of Initial (n = 1) by item:
MEASURED_METRIC: % Remaining of Initial (n = 1) (%)

>>> numeric_readout("CCCCCCCCCCCCCCCC(=O)NCCOC(=O)CCC(=O)OCC(COC(=O)CCCCCCC)OC(=O)CCCCCCC (stereo not shown) [Compound I-3, PEA-Succinate-Glycerol-Di-Caprylic]")
60
>>> numeric_readout("CCCCC/C=C\\C/C=C\\CCCCCCCC(=O)OCCNC(=O)CCCCCCCCCCCCCCC")
87
>>> numeric_readout("CC/C=C\\C/C=C\\C/C=C\\C/C=C\\C/C=C\\CCCC(=O)OCCNC(=O)CCCCCCCCCCCCCCC")
67
>>> numeric_readout("CCCCCCCCCCCCCCCC(=O)NCCOC(=O)CCC(=O)OCC(O)CO (stereo not shown)")
49

###

test: Intestinal S9 fraction stability, mouse; conditions: male, CD-1, mouse, s9, CLint, Control Compound; Mouse intestinal S9 fraction
MEASURED_METRIC: microsomal CLint

>>> result("C[C@]12CC[C@H]3[C@@H](CCC4=CC(=O)CC[C@@]43C)[C@@H]1CC[C@@H]2O [Testosterone, testosterone, reference compound]")
"< 11.6 µL/min/mg"

###

assay: in vitro; details: male, CD-1, mouse, s9, 0.5 h, 1 μM
MEASURED_METRIC: % Remaining of Initial (n = 1), 30 min (%)

>>> numeric_readout("CC/C=C\\C/C=C\\C/C=C\\C/C=C\\C/C=C\\CCCC(=O)OCCNC(=O)CCCCCCCCCCCCCCC")
66
>>> numeric_readout("CCCCC/C=C\\C/C=C\\CCCCCCCC(=O)OCCNC(=O)CCCCCCCCCCCCCCC")
61

###

experiment: in vitro; settings: male, CD-1, mouse, s9, 10 min, 1 μM
Reported % Remaining of Initial (n = 1), 10 min by item:
MEASURED_METRIC: % Remaining of Initial (n = 1), 10 min

>>> result("CCCCCCCCCCCCCCCC(=O)NCCOC(=O)CCC")
"<1.0%"
>>> result("CCCCCCCCCCCCCCCC(=O)NCCOC(=O)CCC(=O)OCC(COC(=O)CCC)OC(=O)CCC (stereo not drawn)")
"<1.0%"
>>> result("CCCCCCCCCCCCCCCC(=O)NCCOC(=O)CCC(=O)OCC(O)CO (stereo not drawn)")
"<1.0%"

###

assay: in vitro; details: male, CD-1, mouse, s9, Half-life (min)
Reported half-life at 1 μM by item:
MEASURED_METRIC: half-life at 1 μM

>>> result("CCCCCCCCCCCCCCCC(=O)NCCOC(=O)CCC [Compound I-2]")
"< 1 min"
>>> result("CCCCC/C=C\\C/C=C\\CCCCCCCC(=O)OCCNC(=O)CCCCCCCCCCCCCCC [Compound I-6]")
"> 60 min"
>>> result("CCCCCCCCCCCCCCCC(=O)NCCOC(=O)CCC(=O)OCC(COC(=O)CCC)OC(=O)CCC (stereo not drawn) [Compound I-11]")
"< 1 min"

###

Reported % Remaining of Initial, 30 min by item:
experiment: in vitro; details: male, Sprague-Dawley, rat, microsomes, 0.5 h, 1 μM
MEASURED_METRIC: % Remaining of Initial, 30 min

>>> result("CCCCCCCCCCCCCCCC(=O)NCCOC(=O)CCC")
"<1.0%"
>>> result("CCCCCCCCCCCCCCCC(=O)NCCOC(=O)CCC(=O)OCC(COC(=O)CCC)OC(=O)CCC (stereo not drawn)")
"<1.0%"
>>> result("CCCCCCCCCCCCCCCC(=O)NCCOC(=O)CCC(=O)OCC(O)CO (stereo not drawn)")
"<1.0%"

###

assay: in vitro; conditions: male, CD-1, mouse, 30 min, 1 μM
MEASURED_METRIC: Measured concentration of analyte PEA, 30 min (µM)

>>> numeric_readout("CCCCCCCCCCCCCCCC(=O)NCCOC(=O)CCC(=O)OCC(COC(=O)CCCCCCC)OC(=O)CCCCCCC (stereo not drawn) [Compound I-3, PEA-Succinate-Glycerol-Di-Caprylic]")
0.042
>>> numeric_readout("CCCCCCCCCCCCCCCC(=O)NCCOC(=O)CCC(=O)OCC(COC(=O)CCC)OC(=O)CCC (stereo not drawn)")
0.12
>>> numeric_readout("CCCCC/C=C\\C/C=C\\CCCCCCCC(=O)OCCNC(=O)CCCCCCCCCCCCCCC")
0.041
>>> numeric_readout("CC/C=C\\C/C=C\\C/C=C\\C/C=C\\C/C=C\\CCCC(=O)OCCNC(=O)CCCCCCCCCCCCCCC")
0.048
>>> numeric_readout("CCCCCCCCCCCCCCCC(=O)NCCOC(=O)CCC")
0.12
>>> numeric_readout("CCCCCCCCCCCCCCCC(=O)NCCOC(=O)CCC(=O)OC[C@H]1O[C@@](CO)(O[C@H]2O[C@H](CO)[C@@H](O)[C@H](O)[C@H]2O)[C@@H](O)[C@@H]1O")
0.11

###

Reported % Remaining of Initial (n = 1), 30 min by item:
experiment: in vitro; conditions: male, Beagle, dog, s9, 0.5 h, 1 μM
MEASURED_METRIC: % Remaining of Initial (n = 1), 30 min

>>> result("CCCCCCCCCCCCCCCC(=O)NCCOC(=O)CCC(=O)OCC(O)CO (stereo not drawn)")
"<1.0%"
>>> result("CCCCCCCCCCCCCCCC(=O)NCCOC(=O)CCC(=O)OC[C@H]1O[C@@](CO)(O[C@H]2O[C@H](CO)[C@@H](O)[C@H](O)[C@H]2O)[C@@H](O)[C@@H]1O")
"<1.0%"
>>> result("CCCCCCCCCCCCCCCC(=O)NCCOC(=O)CCC(=O)OCC(COC(=O)CCC)OC(=O)CCC (stereo not drawn)")
"<1.0%"

###

Reported % Remaining of Initial (n = 1), 60 min by item:
assay: in vitro; settings: male, Beagle, dog, s9, 1 h, 1 μM
MEASURED_METRIC: % Remaining of Initial (n = 1), 60 min

>>> result("CCCCCCCCCCCCCCCC(=O)NCCOC(=O)CCC")
"<1.0%"
>>> result("CCCCCCCCCCCCCCCC(=O)NCCOC(=O)CCC(=O)OCC(O)CO (stereo not shown)")
"<1.0%"
>>> result("CCCCCCCCCCCCCCCC(=O)NCCOC(=O)CCC(=O)OC[C@H]1O[C@@](CO)(O[C@H]2O[C@H](CO)[C@@H](O)[C@H](O)[C@H]2O)[C@@H](O)[C@@H]1O")
"<1.0%"
>>> result("CCCCCCCCCCCCCCCC(=O)NCCOC(=O)CCC(=O)OCC(COC(=O)CCC)OC(=O)CCC (stereo not shown)")
"<1.0%"

###

Assay: in vitro
Settings: male, Beagle, dog, microsomes, 0.5 h, 1 μM
Experimental: Reaction mixture, minus cofactors, was prepared as described below. Test article was added into the reaction mixture at a final concentration of 1 μM. […] Half-lives were calculated using GraphPad software, fitting to a single-phase exponential decay equation. Reaction mixture, minus cofactors, was prepared as described below. […] Half-lives were calculated using GraphPad software, fitting to a single-phase exponential decay equation. […]
Reported % Remaining of Initial, 30 min by item:
MEASURED_METRIC: % Remaining of Initial, 30 min

>>> result("CCCCCCCCCCCCCCCC(=O)NCCOC(=O)CCC(=O)OCC(O)CO (stereo not drawn) [Compound I-9]")
"<1.0%"
>>> result("CCCCCCCCCCCCCCCC(=O)NCCOC(=O)CCC [Compound I-2]")
"<1.0%"
>>> result("CCCCCCCCCCCCCCCC(=O)NCCOC(=O)CCC(=O)OCC(COC(=O)CCC)OC(=O)CCC (stereo not drawn) [Compound I-11]")
"<1.0%"

###

experiment: in vitro; conditions: both, human, 10 min, 1 μM
MEASURED_METRIC: Measured concentration of analyte PEA, 10 min (µM)

>>> numeric_readout("CCCCC/C=C\\C/C=C\\CCCCCCCC(=O)OCCNC(=O)CCCCCCCCCCCCCCC [Compound I-6]")
0
>>> numeric_readout("CCCCCCCCCCCCCCCC(=O)NCCOC(=O)CCC(=O)OCC(O)CO (stereo not drawn) [Compound I-9]")
0.39
>>> numeric_readout("CCCCCCCCCCCCCCCC(=O)NCCOC(=O)CCC(=O)OCC(COC(=O)CCCCCCC)OC(=O)CCCCCCC (stereo not drawn) [Compound I-3, PEA-Succinate-Glycerol-Di-Caprylic]")
0.026

###

assay: in vitro; details: male, CD-1, mouse, s9, 1 h, 1 μM
MEASURED_METRIC: % Remaining of Initial (n = 1), 60 min

>>> result("CCCCCCCCCCCCCCCC(=O)NCCOC(=O)CCC(=O)OC[C@H]1O[C@@](CO)(O[C@H]2O[C@H](CO)[C@@H](O)[C@H](O)[C@H]2O)[C@@H](O)[C@@H]1O")
"<1.0%"
>>> result("CCCCCCCCCCCCCCCC(=O)NCCOC(=O)CCC(=O)OCC(O)CO (stereo not shown)")
"<1.0%"
>>> result("CCCCCCCCCCCCCCCC(=O)NCCOC(=O)CCC")
"<1.0%"
>>> result("CCCCCCCCCCCCCCCC(=O)NCCOC(=O)CCC(=O)OCC(COC(=O)CCC)OC(=O)CCC (stereo not shown)")
"<1.0%"

Where these numbers come from: patent US11547681B2
